Molecular target: T1, Spy_(29-124) K75D (UniProt P77754 52-147, K75D)
T1 construct: source: E. coli BL21 (DE3), purified (Ni-NTA, cation exchange, SEC); not shown: His6, N-terminal, cleaved; SUMO, N-terminal, cleaved
T1 sequence (looked up): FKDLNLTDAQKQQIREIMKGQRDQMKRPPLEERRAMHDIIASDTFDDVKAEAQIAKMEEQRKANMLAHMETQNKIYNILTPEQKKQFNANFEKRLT
Assay: BLI; Octet RED96; client biotinylated and loaded on streptavidin sensors; Spy or Spy variant in solution at 0.25, 0.5, 1, 1.5 and 2 μM; 40 mM HEPES, 150 mM NaCl, pH 7.5; Kd calculated as koff/kon
Settings: both partners purified
Reported Property: pKd
To interpret pKd, take it as minus log10 of a concentration measured in moles per litre.

[ask] # input binder: Im7 H40W L53A I54A (natural protein, biotin (EZ-link NHS-biotin, 1:1 molar ratio of biotin to protein), Im7 (colicin E7 immunity protein) with H40W L53A I54A; Spy was made with an N-terminal His6-SUMO tag that was cleaved; also called Im7AAW; partially folded client; source: purified by a similar procedure to Spy) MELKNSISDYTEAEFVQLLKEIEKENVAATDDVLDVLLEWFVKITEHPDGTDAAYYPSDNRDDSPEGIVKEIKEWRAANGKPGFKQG ; wanted: its pKd
[reply] 6.34
